Value source: patent US20080026996A1

Biological target: human PAC1 (Homo sapiens)
Sequence (P41586 21-468): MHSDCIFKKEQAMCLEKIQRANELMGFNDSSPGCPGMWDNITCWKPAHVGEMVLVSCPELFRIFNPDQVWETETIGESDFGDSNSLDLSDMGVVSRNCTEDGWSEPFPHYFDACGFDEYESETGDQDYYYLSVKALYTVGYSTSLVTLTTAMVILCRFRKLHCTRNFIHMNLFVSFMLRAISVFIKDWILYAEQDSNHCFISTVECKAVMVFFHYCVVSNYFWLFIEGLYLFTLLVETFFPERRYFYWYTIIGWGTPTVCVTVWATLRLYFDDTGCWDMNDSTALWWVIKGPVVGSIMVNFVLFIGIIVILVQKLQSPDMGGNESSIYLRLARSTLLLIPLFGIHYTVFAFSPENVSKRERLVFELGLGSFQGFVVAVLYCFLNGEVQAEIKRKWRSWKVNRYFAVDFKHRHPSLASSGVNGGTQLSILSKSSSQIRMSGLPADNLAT
Experiment: DiscoveRx cAMP in vitro potency, CHO-PO cells transiently transfected with human PAC1 receptor
Type: cell-based
Set-up: expressed in transfected cells; host or cells: CHO-PO, transient (Lipofectamine)
Details: cAMP generation; mean of two independent runs; read-out: Human PAC1 Receptor: DiscoveRx EC50
Where no end group is shown, it is not given here.
parameterMeasured: EC50

Query :: Look up and report measured EC50 (human PAC1 (Homo sapiens)) for the following substance: HGDAVFTDNYTRLRKQVAAKKYLQSIKNKRYGGPSSGAPPPS [Agonist P43]
Result :: 104 nM

Query :: Name the value of EC50 reported for HSDAVFTDNYTRLRKQVAAKKYLQSIKNRRYGGPSSGAPPPS [Agonist P25] when tested on human PAC1 (Homo sapiens).
Result :: 137 nM

Query :: Return reported EC50 for target or system human PAC1 (Homo sapiens), item HSDAVFTDNYTRLRKQVAASKYLQSIKNKRYGGPSSGAPPPS [Agonist P21] .
Result :: > 100 nM

Query :: // fetch EC50 for H-HSDAVFTDNYTRLRKQVAAKKYLQSIKNKRYC [Agonist P37] ; system: human PAC1 (Homo sapiens)
Result :: 35.6 nM

Query :: Provide measured EC50 on human PAC1 (Homo sapiens) for HSDATFTDNYTRLRKQVAAKKYLQSIKNKRYGGPSSGAPPPS [Agonist P62] please.
Result :: 137 nM

Query :: Report EC50 from human PAC1 (Homo sapiens) testing of H-HSDAVFTDNYTRLRKQVAAKKYLQSIQNKRYGGPSSGAPPPS [Agonist P74]
Result :: 145 nM

Query :: Please indicate recorded EC50 of HSDAFFTDNYTRLRKQVAAKKYLQSIKNKRYGGPSSGAPPPS [Agonist P58] measured with human PAC1 (Homo sapiens).
Result :: 35.6 nM

Query :: GET EC50 where system = human PAC1 (Homo sapiens) and item = HSDAVFTDNWTRLRKQVAAKKYLQSIKNKRYGGPSSGAPPPS [Agonist P27]
Result :: > 100 nM

Query :: State, for human PAC1 (Homo sapiens), measured EC50 of the substance listed here: H-HSDAVFTDNYTRLRKQVAARKYLQSIKNKRYGGPSSGAPPPS [Agonist P20]
Result :: > 25 nM
